System: in vivo angiogenesis, blood vessel count
Protocol Notes: reduction of blood vessel formation in vivo – HTS, in vivo study (AID 732);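 note: zebrafish embryos dosed at one day post fertilization; 0% = reference inhibitor and 100% = plate mean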
Condition Parameters: active compounds read low;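 tested at 30 µM in the well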
Calls of active or inactive are those of the source. The rule behind the calls is not given here.
compounds and their reported vessel count % control

N#CC(C#N)=Cc1cc(O)c(O)c(O)c1 : 107% (inactive)
CC(C)(C)c1cc(/C=C(\C#N)C(N)=S)cc(C(C)(C)C)c1O : 0% (inactive)
CC(C)[C@@H]1NC(=O)[C@H](CCCCN)NC(=O)[C@@H](Cc2c[nH]c3ccccc23)NC(=O)[C@H](Cc2ccc(O)cc2)NC(=O)[C@H](C)N(C)C(=O)[C@H](Cc2ccccc2)NC1=O : 101% (inactive)
NCCCCN=C(N)N : 106% (inactive)
COC(=O)C(N)Cc1ccc(Cl)cc1 (stereo unspecified) : 82.4% (inactive)
CC1(C(=O)O)C2CCC(O2)C1(C)C(=O)O (stereo unspecified) : 0% (inactive)
CN1CCN(c2ccc3ccccc3n2)CC1 : 104% (inactive)
CNC(=O)[C@H]1O[C@@H](n2cnc3c(NCc4ccc(N)cc4)ncnc32)C(O)[C@H]1O (stereo partly specified) : 134% (inactive)

# query: vessel count % control of entry "O=C1NC(c2cccc([N+](=O)[O-])c2)=CCN1c1ccccc1O"
91.3% (inactive)

Note, next up: "S=C(Nc1ccccc1)Nc1nccs1"
61.2% (inactive)

Note, next up: "N[C@H]1CONC1=O"
93% (inactive)
